experiment: qHTS assay to identify small molecule antagonists of the constitutive androstane receptor (CAR) signaling pathway - cell viability counter screen (AID 1224837); conditions: HepG2-CYP2B6-hCAR viability, CellTiter-Fluor, 23 h, co-treated with 50 nM CITCO; series mostly up to 92.4 µM; note: nearly all actives have a fitted effect of over 45% in size
Results filed as inconclusive are left out. The source made the active and inactive calls. Calls come from the whole dose curve; as a rule, active = well fitted cell-killing curve with a large enough effect in the repeat runs; inconclusive = weak or mixed curves, or effect the other way; inactive = flat fitted curve, though single readings scatter.
quantityKind: activity change, negative = cytotoxicity

BrCC1CO1 (stereo not drawn) = inactive
CNC(=O)NC(O)C(Cl)(Cl)Cl (stereo not drawn) = inactive
O=c1[nH]c2ccccc2o1 = inactive

----------
target: Cytochrome P450 2D6 (Homo sapiens) (UniProt P10635); experiment: Cytochrome P450 Family 2 Subfamily D Member 6 (CYP2D6) small molecule antagonists: luciferase reporter qHTS assay (AID 1671196); settings: P450-Glo CYP2D6 enzyme assay, luciferin luminescence, 1 h; series mostly up to 115 µM; note: nearly all actives have a fitted effect of over 50% in size
Sequence (P10635 whole entry, looked up): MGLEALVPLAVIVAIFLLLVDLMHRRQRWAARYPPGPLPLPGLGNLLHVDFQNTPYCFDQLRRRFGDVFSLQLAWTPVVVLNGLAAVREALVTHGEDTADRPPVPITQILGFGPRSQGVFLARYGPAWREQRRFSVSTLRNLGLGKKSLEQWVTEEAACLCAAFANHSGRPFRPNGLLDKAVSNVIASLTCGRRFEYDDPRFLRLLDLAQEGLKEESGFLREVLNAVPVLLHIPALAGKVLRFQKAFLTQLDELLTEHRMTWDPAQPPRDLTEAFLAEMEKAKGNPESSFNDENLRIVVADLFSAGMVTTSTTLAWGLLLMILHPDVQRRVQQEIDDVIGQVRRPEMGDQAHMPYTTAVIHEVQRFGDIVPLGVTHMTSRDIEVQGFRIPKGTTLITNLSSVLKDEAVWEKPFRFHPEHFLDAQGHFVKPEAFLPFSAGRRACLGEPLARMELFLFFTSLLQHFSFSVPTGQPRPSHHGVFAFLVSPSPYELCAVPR
Results filed as inconclusive are left out. The source made the active and inactive calls. Calls come from the whole dose curve; as a rule, active = well fitted inhibition curve with a large enough effect in the repeat runs; inconclusive = weak or mixed curves; inactive = no such curve, though single readings can be large or run the other way.
The reply should be one of these categories: 1 (yes) for active, 0 (no) for inactive

CN1COCN(Cc2cnc(Cl)s2)/C1=N\[N+](=O)[O-] = 0 (no)
Cn1c(N)nc2c3cccnc3ccc21 = 1 (yes)
CNC(=O)O/N=C(/CSC)C(C)(C)C = 0 (no)
CCNc1nc(Cl)nc(NC(C)(C)C)n1 = 0 (no)
CCOc1cc(OP(=S)(OC)OC)nc(CC)n1 = 0 (no)

Now for another entry.
Please let me know the test result on file for O=C(NC(O)C(Cl)(Cl)Cl)NC(O)C(Cl)(Cl)Cl (stereo unspecified) .
0 (no)

This collection of values is drawn from PubChem BioAssay (Tox21).
